targetOfAssay: peripheral opiate receptors, mouse vas deferens (MVD)
assayExplanation: MVD bioassay, suppression of electrically induced contraction
studyConditions: mouse vas deferens, electrical stimulation
Method: Brit. J. Pharmacol., 35, 10-28]. The longitudinal muscle of ileum from guinea pig of any sex (weight 350-500 g) was carefully separated from underlying circular muscle and placed into a small bath with Krebs solution at 36° C. The solution was constantly aerated. […] The inhibiting activity of the compounds was determined by accumulating doses, adding increasing concentrations of the compounds without washing. The activity of the preparations was expressed as IC50 in nmol/l. […]
pIC50: −log10 of the molar value.
reportedProperty: pIC50

compound	reportedProperty	reportedResult
CC(=O)NCCCC(NC(=O)C(N)Cc1ccc(O)cc1)C(=O)NCC(=O)NC(Cc1ccc([N+](=O)[O-])cc1)C(N)=O [Peptide 1, Tyr-(N^δ—Ac)-D-Orn-Gly-Phe(p-NO2)—NH2]	pIC50	7.41

----------
targetOfAssay: peripheral opiate receptors, mouse vas deferens (MVD)
assayExplanation: MVD bioassay, suppression of electrically induced contraction
studyConditions: mouse vas deferens, electrical stimulation
reportedProperty: IC50 (nM)

In [3]: df
Out[3]:
                                  substance  reportedproperty  reportedresult
0  Tyr-Gly-Gly-Phe-Leu [[Leu^5]-enkephalin, reference compound]              IC50              20
